measured.on: human NEP (Homo sapiens, UniProt P08473)
Construct: purchased R&D Systems, Minneapolis, MN 1182-ZN
Sequence (P08473 52-750 limits assumed): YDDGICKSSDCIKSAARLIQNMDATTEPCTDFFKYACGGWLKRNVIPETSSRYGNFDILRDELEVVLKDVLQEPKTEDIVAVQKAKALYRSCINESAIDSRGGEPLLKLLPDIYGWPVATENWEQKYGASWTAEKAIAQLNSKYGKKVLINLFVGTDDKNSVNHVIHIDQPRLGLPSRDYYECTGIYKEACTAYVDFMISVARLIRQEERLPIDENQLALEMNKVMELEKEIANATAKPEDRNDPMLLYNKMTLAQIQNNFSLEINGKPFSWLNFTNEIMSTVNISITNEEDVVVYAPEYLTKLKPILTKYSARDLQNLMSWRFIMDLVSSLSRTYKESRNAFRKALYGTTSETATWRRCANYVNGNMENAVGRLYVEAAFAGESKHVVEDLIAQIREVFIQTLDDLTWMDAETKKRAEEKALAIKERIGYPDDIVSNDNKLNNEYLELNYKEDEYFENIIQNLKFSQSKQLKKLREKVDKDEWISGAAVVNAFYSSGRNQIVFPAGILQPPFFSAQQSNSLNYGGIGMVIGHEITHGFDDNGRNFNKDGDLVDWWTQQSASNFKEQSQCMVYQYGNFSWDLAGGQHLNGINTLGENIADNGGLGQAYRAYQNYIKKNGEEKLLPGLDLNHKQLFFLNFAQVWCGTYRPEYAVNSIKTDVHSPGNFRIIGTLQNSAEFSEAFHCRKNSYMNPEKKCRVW
procedure.details: In vitro enzyme inhibition assay at human NEP (fluorogenic peptide substrate)
Type: biochemical
measurement.context: recombinant human NEP; 10 μM fluorogenic substrate Mca-D-Arg-Arg-Leu-Dap-(Dnp)-OH; 37° C.; 30 minute preincubation; read-out: pKi value at human NEP (converted)
measured.endpoint: Ki

Reference set (3 entries):
structure.smiles: COc1ccccc1-c1ccc(C[C@H](C[C@@](C)(CO)C(=O)O)NC(=O)c2c[nH]nn2)cc1
measured.result: 1 to 3.16 nM

structure.smiles: C[C@@](COCCO)(C[C@@H](Cc1ccc(-c2cccc(Cl)c2)cc1)NC(=O)c1c[nH]nn1)C(=O)O
measured.result: ≤ 1 nM

structure.smiles: CCOc1cc(C(=O)N[C@H](Cc2ccc(-c3cc(Cl)ccc3F)cc2)C[C@@](C)(COC)C(=O)O)[nH]n1
measured.result: 1 to 3.16 nM

# return Ki for each item in the list
1. COc1cc(C(=O)N[C@H](Cc2ccc(-c3cccc(Cl)c3)cc2)C[C@@](C)(CO)C(=O)O)on1
2. Cc1ccccc1-c1ccc(C[C@H](C[C@@](C)(CO)C(=O)O)NC(=O)c2c[nH]nn2)cc1

1: ≤ 1 nM; 2: ≤ 1 nM
